subject-of-test: Muscarinic acetylcholine receptor
assay-procedure: The binding affinity was measured as inhibition of binding of [3H]- oxotremorine-M to muscarinic acetylcholine receptor in rat cerebral cortical membranes.
Assay type: cell membranes, Membrane

compound: CC(=O)OC1CC2CCCC1N2C (stereo not drawn)
Ki (nM): 860
//
compound: COc1ccc(C(=O)OC2CC3CCCC2N3C)cc1 (stereo not drawn)
Ki (nM): 7300
//
compound: O=C1CCCN1CC#CCN1CCCC1 [OXOTREMORINE]
Ki (nM): 13
//
compound: CN1C2CCCC1C(OC(=O)OCC(Cl)(Cl)Cl)C2 (stereo not drawn)
Ki (nM): 720
//
compound: CN1C2CCCC1C(OC(=O)c1ccccc1)C2 (stereo not drawn)
Ki (nM): 860
//
compound: CN1C2CCCC1C(OC(=O)c1ccc([N+](=O)[O-])cc1)C2 (stereo not drawn)
Ki (nM): 14000
//
compound: CCC(=O)OC1CC2CCCC1N2C (stereo not drawn)
Ki (nM): 1500
//
compound: CC(=O)OC1CC2CCCC1N2 (stereo not drawn)
Ki (nM): 2
//
compound: O=C(Nc1ccccc1)OC1CC2CCCC1N2 (stereo not drawn)
Ki (nM): 4300
//
compound: CN1C2CCCC1C(OC(=O)Nc1ccccc1)C2 (stereo not drawn)
Ki (nM): 5100
//
compound: O=C(OC1CC2CCCC1N2)c1ccccc1 (stereo not drawn)
Ki (nM): 650
//
compound: CN1C2CCCC1C(OS(C)(=O)=O)C2 (stereo not drawn)
Ki (nM): 2200
//
compound: CN(C)C(=O)OC1CC2CCCC1N2 (stereo not drawn)
Ki (nM): 1700
//
compound: COc1ccccc1C(=O)OC1CC2CCCC1N2 (stereo not drawn)
Ki (nM): 2800
//
compound: CCCC(=O)OC1CC2CCCC1N2 (stereo not drawn)
Ki (nM): 160
//
compound: COc1ccccc1C(=O)OC1CC2CCCC1N2C (stereo not drawn)
Ki (nM): 1400
//
compound: CCC(=O)OC1CC2CCCC1N2 (stereo not drawn)
Ki (nM): 30
//
compound: CS(=O)(=O)OC1CC2CCCC1N2 (stereo not drawn)
Ki (nM): 2700
//
compound: O=C(OC1CC2CCCC1N2)C1CCCCC1 (stereo not drawn)
Ki (nM): 1900
//
compound: O=C(OC1CC2CCCC1N2)c1ccc([N+](=O)[O-])cc1 (stereo not drawn)
Ki (nM): 430
//
compound: COc1ccc(C(=O)OC2CC3CCCC2N3)cc1 (stereo not drawn)
Ki (nM): 1700
//
compound: CCCC(=O)OC1CC2CCCC1N2C (stereo not drawn)
Ki (nM): 1200
//
compound: CN1C2CCCC1C(OC(=O)C1CCCCC1)C2 (stereo not drawn)
Ki (nM): 860

* * *

Recorded Ki values (Muscarinic acetylcholine receptor) are given below.

compound: CC(=O)OC1CC2CCCC1N2C (stereo not given)
unit-text: nM
Ki: 92

compound: CC(=O)OC1CC2CCCC1N2 (stereo not given)
unit-text: nM
Ki: 0.95

compound: O=C(OC1CC2CCCC1N2)c1ccccc1 (stereo not given)
unit-text: nM
Ki: 440

compound: O=C1CCCN1CC#CCN1CCCC1 [OXOTREMORINE]
unit-text: nM
Ki: 6

compound: CN1C2CCCC1C(OC(=O)c1ccccc1)C2 (stereo not given)
unit-text: nM
Ki: 790

* * *

Each entry below carries its reported pKi.
subject-of-test: Muscarinic acetylcholine receptor M1 (Homo sapiens, UniProt P11229)
Sequence (P11229 whole entry): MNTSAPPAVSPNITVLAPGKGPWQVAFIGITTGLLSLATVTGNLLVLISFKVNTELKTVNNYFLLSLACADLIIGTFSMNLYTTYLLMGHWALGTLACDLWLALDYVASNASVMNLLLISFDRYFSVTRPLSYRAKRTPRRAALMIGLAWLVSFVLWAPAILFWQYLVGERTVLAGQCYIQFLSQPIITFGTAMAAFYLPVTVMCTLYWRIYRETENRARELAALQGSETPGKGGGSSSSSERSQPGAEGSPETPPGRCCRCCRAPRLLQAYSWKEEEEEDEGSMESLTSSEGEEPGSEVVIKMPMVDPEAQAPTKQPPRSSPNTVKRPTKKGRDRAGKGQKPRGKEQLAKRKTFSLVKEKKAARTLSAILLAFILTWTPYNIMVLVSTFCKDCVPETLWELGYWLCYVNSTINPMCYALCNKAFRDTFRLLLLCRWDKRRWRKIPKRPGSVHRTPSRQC
assay-procedure: Inhibition of [3H]- oxotremorine-M binding to human Muscarinic acetylcholine receptor M1 expressed in CHO cell membranes
Type: cell-based
pKi: −log10 of the molar value.

compound: CCC(=O)OC1CC2CCCC1N2C (stereo unspecified)
pKi: 6.64
--
compound: O=C(OC1CC2CCCC1N2)c1ccccc1 (stereo unspecified)
pKi: 6.92
--
compound: CC(=O)OC1CC2CCCC1N2C (stereo unspecified)
pKi: 5.64
--
compound: CCC(=O)OC1CC2CCCC1N2 (stereo unspecified)
pKi: 6.72
--
compound: O=C(OC1CC2CCCC1N2)c1ccc([N+](=O)[O-])cc1 (stereo unspecified)
pKi: 7.54
--
compound: CN1C2CCCC1C(OC(=O)c1ccccc1)C2 (stereo unspecified)
pKi: 6.57
--
compound: CN1C2CCCC1C(OC(=O)C1CCCCC1)C2 (stereo unspecified)
pKi: 6.35
--
compound: O=C1CCCN1CC#CCN1CCCC1
pKi: 7.77
--
compound: O=C(OC1CC2CCCC1N2)C1CCCCC1 (stereo unspecified)
pKi: 6.01
--
compound: CN1C2CCCC1C(OC(=O)OCC(Cl)(Cl)Cl)C2 (stereo unspecified)
pKi: 6.00
--
compound: CC(=O)OC1CC2CCCC1N2 (stereo unspecified)
pKi: 8.34

* * *

Each entry below carries its reported pKi.
subject-of-test: Muscarinic acetylcholine receptor M4 (Homo sapiens)
Sequence (P08173 whole entry): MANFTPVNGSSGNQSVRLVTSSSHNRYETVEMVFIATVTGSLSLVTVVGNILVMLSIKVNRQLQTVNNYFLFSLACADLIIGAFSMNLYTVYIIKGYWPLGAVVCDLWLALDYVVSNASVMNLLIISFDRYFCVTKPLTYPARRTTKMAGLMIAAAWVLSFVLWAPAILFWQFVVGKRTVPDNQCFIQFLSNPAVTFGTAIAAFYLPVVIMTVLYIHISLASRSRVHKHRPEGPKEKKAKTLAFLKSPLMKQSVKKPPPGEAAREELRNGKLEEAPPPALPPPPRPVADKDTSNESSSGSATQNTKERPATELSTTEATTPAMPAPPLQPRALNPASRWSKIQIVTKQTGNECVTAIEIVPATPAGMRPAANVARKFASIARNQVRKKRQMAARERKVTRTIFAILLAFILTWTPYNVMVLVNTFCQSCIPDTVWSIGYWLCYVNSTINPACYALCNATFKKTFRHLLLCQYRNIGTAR
assay-procedure: Inhibition of [3H]- oxotremorine-M binding to human Muscarinic acetylcholine receptor M4 in CHO cell membranes
pKi: −log10 of the molar value.

compound: O=C1CCCN1CC#CCN1CCCC1
pKi: 8.82

compound: CCC(=O)OC1CC2CCCC1N2C (configuration not stated)
pKi: 5.85

compound: CCC(=O)OC1CC2CCCC1N2 (configuration not stated)
pKi: 7.07

compound: O=C(OC1CC2CCCC1N2)C1CCCCC1 (configuration not stated)
pKi: 5.66

compound: CN1C2CCCC1C(OC(=O)OCC(Cl)(Cl)Cl)C2 (configuration not stated)
pKi: 5.64

compound: O=C(OC1CC2CCCC1N2)c1ccc([N+](=O)[O-])cc1 (configuration not stated)
pKi: 6.35

compound: O=C(OC1CC2CCCC1N2)c1ccccc1 (configuration not stated)
pKi: 6.30

compound: C[C@@H]1O[C@H](C[N+](C)(C)C)C[C@H]1O
pKi: 7.64

compound: CC(=O)OC1CC2CCCC1N2C (configuration not stated)
pKi: 6.05

compound: CN1C2CCCC1C(OC(=O)c1ccccc1)C2 (configuration not stated)
pKi: 6.04

compound: CC(=O)OC1CC2CCCC1N2 (configuration not stated)
pKi: 8.40

compound: CN1C2CCCC1C(OC(=O)C1CCCCC1)C2 (configuration not stated)
pKi: 6.15

* * *

assay-procedure: Ratio of affinity versus antagonist [3H]-QNB divided by affinity versus agonist [3H]OXO-M
Assay type: functional

compound: CCC(=O)OC1CC2CCCC1N2C (configuration not stated)
censor-symbol: >
Ratio: 70
--
compound: COc1ccccc1C(=O)OC1CC2CCCC1N2C (configuration not stated)
censor-symbol: =
Ratio: 22
--
compound: O=C(Nc1ccccc1)OC1CC2CCCC1N2 (configuration not stated)
censor-symbol: >
Ratio: 25
--
compound: CN1C2CCCC1C(OC(=O)Nc1ccccc1)C2 (configuration not stated)
censor-symbol: >
Ratio: 20
--
compound: O=C1CCCN1CC#CCN1CCCC1 [OXOTREMORINE]
censor-symbol: =
Ratio: 4500
--
compound: CC(=O)OC1CC2CCCC1N2 (configuration not stated)
censor-symbol: =
Ratio: 11000
--
compound: CC(=O)OC1CC2CCCC1N2C (configuration not stated)
censor-symbol: =
Ratio: 330

* * *

subject-of-test: UniProt P20309
Sequence (P20309 whole entry): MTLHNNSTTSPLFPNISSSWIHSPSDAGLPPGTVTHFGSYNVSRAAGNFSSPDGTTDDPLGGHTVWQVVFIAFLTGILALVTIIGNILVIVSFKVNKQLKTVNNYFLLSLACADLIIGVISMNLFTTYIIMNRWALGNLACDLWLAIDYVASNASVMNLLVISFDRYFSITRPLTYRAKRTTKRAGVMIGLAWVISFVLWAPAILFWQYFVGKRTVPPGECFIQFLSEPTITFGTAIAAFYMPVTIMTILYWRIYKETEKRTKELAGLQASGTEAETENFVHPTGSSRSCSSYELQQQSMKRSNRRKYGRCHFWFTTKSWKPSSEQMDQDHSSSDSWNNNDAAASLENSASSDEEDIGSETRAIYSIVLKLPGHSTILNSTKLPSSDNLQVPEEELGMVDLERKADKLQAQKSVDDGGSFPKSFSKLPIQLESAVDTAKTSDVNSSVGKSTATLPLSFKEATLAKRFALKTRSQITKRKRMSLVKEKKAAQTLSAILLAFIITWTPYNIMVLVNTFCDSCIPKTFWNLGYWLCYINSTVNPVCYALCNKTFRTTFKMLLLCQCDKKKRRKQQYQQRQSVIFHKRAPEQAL
Assay type: cell membranes, CHO
Threshold 7 µM. Ki below it: rule met. Ki at it or above: rule not met.

compound: CCC(=O)OC1CC2CCCC1N2C (configuration not stated)
group-label: rule not met
--
compound: O=C(OC1CC2CCCC1N2)C1CCCCC1 (configuration not stated)
group-label: rule not met
--
compound: CN1C2CCCC1C(OC(=O)c1ccccc1)C2 (configuration not stated)
group-label: rule met
--
compound: CCC(=O)OC1CC2CCCC1N2 (configuration not stated)
group-label: rule not met
--
compound: CN1C2CCCC1C(OC(=O)C1CCCCC1)C2 (configuration not stated)
group-label: rule met
--
compound: O=C(OC1CC2CCCC1N2)c1ccccc1 (configuration not stated)
group-label: rule met
--
compound: CN1C2CCCC1C(OC(=O)OCC(Cl)(Cl)Cl)C2 (configuration not stated)
group-label: rule met

Values from ChEMBL document CHEMBL1133759
